Target: T1, extracellular domain (ECD) of human αKlotho, amino acids E34-S981 with C-terminal 6-His tag (R&D Systems … (human, UniProt Q9UEF7 34-981))
T1 construct: range 34-981; also called αKlotho (aa34-981); target antigen
T1 sequence: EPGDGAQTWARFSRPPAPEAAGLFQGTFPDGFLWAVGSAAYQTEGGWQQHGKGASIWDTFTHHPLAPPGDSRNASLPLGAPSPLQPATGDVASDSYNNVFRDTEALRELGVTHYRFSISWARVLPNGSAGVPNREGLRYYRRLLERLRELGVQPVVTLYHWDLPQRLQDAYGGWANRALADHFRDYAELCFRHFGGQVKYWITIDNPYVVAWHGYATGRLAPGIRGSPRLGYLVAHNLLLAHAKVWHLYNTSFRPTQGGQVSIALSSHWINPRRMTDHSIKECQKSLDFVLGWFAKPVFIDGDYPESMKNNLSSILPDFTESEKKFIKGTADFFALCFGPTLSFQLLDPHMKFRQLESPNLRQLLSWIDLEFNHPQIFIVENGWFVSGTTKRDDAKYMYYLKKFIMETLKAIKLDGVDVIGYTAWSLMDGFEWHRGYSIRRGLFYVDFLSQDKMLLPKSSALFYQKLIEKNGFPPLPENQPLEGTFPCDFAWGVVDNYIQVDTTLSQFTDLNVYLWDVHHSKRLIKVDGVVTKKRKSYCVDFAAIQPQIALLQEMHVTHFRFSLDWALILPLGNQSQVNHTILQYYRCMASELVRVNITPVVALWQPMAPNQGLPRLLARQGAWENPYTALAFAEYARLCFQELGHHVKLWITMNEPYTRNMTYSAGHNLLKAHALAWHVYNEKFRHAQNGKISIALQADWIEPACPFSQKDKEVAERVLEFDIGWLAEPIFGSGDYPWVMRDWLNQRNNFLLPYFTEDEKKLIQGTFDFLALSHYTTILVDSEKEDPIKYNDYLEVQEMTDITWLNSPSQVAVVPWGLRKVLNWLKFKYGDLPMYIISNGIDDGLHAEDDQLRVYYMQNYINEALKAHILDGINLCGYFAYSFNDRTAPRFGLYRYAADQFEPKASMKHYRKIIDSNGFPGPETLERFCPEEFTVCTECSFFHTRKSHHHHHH
Assay: SPR, Fab captured by anti-H+L IgG, αKlotho injected at 50 to 6.25 ug/ml, Langmuir fit [continued]
PARAMETER: koff (s⁻¹)
Numbers only, in s⁻¹.

Lookup result for anti-αKlotho Fab clone 4809 (Fab, V domains shown, Fab (also as Fab-phage); FLAG tag on light chain; also called sb178) VH: EVQLVESGGGLVQPGGSLRLSCAASGFNIYSYYIHWVRQAPGKGLEWVASIYSYYGSTSYADSVKGRFTISADTSKNTAYLQMNSLRAEDTAVYYCARSGPWAWYGLDYWGQGTLVTVSS VL: DIQMTQSPSSLSASVGDRVTITCRASQSVSSAVAWYQQKPGKAPKLLIYSASSLYSGVPSRFSGSRSGTDFTLTISSLQPEDFATYYCQQSGWAYHPITFGQGTKVEIKR ; measured koff: 0.000258

Dear colleague, could you please provide koff for the binders listed below?
1. anti-αKlotho Fab clone 4823 (Fab, V domains shown, Fab (also as Fab-phage); FLAG tag on light chain; also called sb192) VH: EVQLVESGGGLVQPGGSLRLSCAASGFNFSSSSIHWVRQAPGKGLEWVAYIYSSYGYTYYADSVKGRFTISADTSKNTAYLQMNSLRAEDTAVYYCARAAHYGYYVHSGLDYWGQGTLVTVSS VL: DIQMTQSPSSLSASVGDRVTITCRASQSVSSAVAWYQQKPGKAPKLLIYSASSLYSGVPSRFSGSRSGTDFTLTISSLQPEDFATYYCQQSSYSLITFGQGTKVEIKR
2. anti-αKlotho Fab clone 4817 (Fab, V domains shown, Fab (also as Fab-phage); FLAG tag on light chain; also called sb186) VH: EVQLVESGGGLVQPGGSLRLSCAASGFNFSSSSIHWVRQAPGKGLEWVASISSSYGYTYYADSVKGRFTISADTSKNTAYLQMNSLRAEDTAVYYCARGYPSSGAAWFWFSHPGSAMDYWGQGTLVTVSS VL: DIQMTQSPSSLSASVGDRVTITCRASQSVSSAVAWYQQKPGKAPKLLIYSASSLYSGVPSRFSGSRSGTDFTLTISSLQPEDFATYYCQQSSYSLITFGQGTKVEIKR
3. anti-αKlotho Fab clone 4812 (Fab, V domains shown, Fab (also as Fab-phage); FLAG tag on light chain; also called sb181) VH: EVQLVESGGGLVQPGGSLRLSCAASGFNLSSYSMHWVRQAPGKGLEWVASISSYSGYTSYADSVKGRFTISADTSKNTAYLQMNSLRAEDTAVYYCARSYSWWWSVSYAMDYWGQGTLVTVSS VL: DIQMTQSPSSLSASVGDRVTITCRASQSVSSAVAWYQQKPGKAPKLLIYSASSLYSGVPSRFSGSRSGTDFTLTISSLQPEDFATYYCQQGYWLFTFGQGTKVEIK

Response:
[0.000744, 0.00269, 0.000191]
